- System: NCI-H322M lung
- ASSAY_DETAILS: NCI-60 one-dose screen, 48 h (100 = growth as untreated, 0 = no growth, -100 = all killed)
- PROTOCOL_CONDITIONS: 10 µM unless noted
- Method: Growth inhibition of the NCI-H322M human Non-Small Cell Lung tumor cell line is measured as a screen for anti-cancer activity. Cells are grown in 96 well plates and exposed to the test compound for 48 hours. Compounds are tested at a single concentration, which is 10^-5 M for most compounds. The reported endpoint is percent growth (GI% or GIPRCNT), where numbers from 0 - 100% represent growth inhibition, and numbers from -100% - 0 represent cell death. […]
The panel holds about 83,000 compounds, 20% with a hit somewhere; the sample as a whole holds those more often.

{"columns": ["MOLECULE", "RESULT_UNITS", "growth"],
 "data": [
  ["CC[C@@H]1[C@@H](C)O[C@@](O)([C@@H](C)[C@H](O)[C@H](C)[C@H]2OC(=O)/C=C/C=C/[C@H](C)[C@@H]([C@@H](C)[C@@H](O)[C@H](C)[C@@]3(O)C[C@@H](O[C@H]4C[C@@H](O)[C@H](O)C(C)O4)[C@H](CC)[C@@H](C)O3)OC(=O)/C=C/C=C/[C@@H]2C)C[C@H]1O[C@@H]1C[C@@H](O)[C@H](O)C(C)O1 (some centres not stated)", "%", -96.6],
  ["CCOC(=O)N[C@H]1CCc2c(Br)c(OC)c(OC)c(OC)c2-c2ccc(SC)c(=O)cc21", "%", 35.3],
  ["O=C(CC1(O)C(=O)N(Cc2ccccc2)c2ccccc21)c1ccc(C(=O)NCC2CCC3(CC2)OOC2(CCCCC2)OO3)cc1 (configuration not stated)", "%", 65.2],
  ["C=C(C)[C@@]12OC3(/C=C/C=C/CCCCC)O[C@@H]1[C@@H]1[C@@H]4O[C@]4(CO)[C@@H](O)[C@]4(O)C(=O)C(C)=C[C@H]4[C@@]1(O3)[C@H](C)[C@H]2OC(=O)c1ccccc1", "%", 76.6],
  ["O=C(O)CNC(=O)C(Cl)(Cl)Cl", "%", 97.7],
  ["CC1CN1CCCCN1CC1C (configuration not stated)", "%", 101],
  ["NC(=O)C(Br)c1ccccc1 (configuration not stated)", "%", 99.6]
]}

* * *

- Tested on: COLO 205 colon
- ASSAY_DETAILS: NCI-60 one-dose screen, 48 h (100 = growth as untreated, 0 = no growth, -100 = all killed)
- PROTOCOL_CONDITIONS: 10 µM unless noted
The panel holds about 83,000 compounds, 20% with a hit somewhere; the sample as a whole holds those more often.
// reported growth per item

{"columns": ["COMPOUND", "TARGET_DESC", "growth / %"],
 "data": [
  ["COC(=O)C1OC(Oc2ccc(N(CCCl)CCCl)cc2)C(OC(C)=O)C(OC(C)=O)C1OC(C)=O (stereo not drawn)", "COLO 205 colon", 95.3],
  ["O=C(Nc1ccc(Cl)cc1)Nc1nccs1", "COLO 205 colon", 3.09],
  ["O=P(N1CC1)(N1CC1)N1CCc2ccccc21", "COLO 205 colon", 117],
  ["O=C1C(N2CC2)=C(N2CC2)C(=O)C(N2CC2)=C1N1CC1", "COLO 205 colon", -100],
  ["CC1=C(O)[C@@](C)(CCCCC[C@H](C)CCCCc2ccc(O)cc2)OOC1=O", "COLO 205 colon", 107],
  ["O=C1OCCC1Br (stereo not drawn)", "COLO 205 colon", 120],
  ["C1CCC([PH+](C2CCCCC2)C2CCCCC2[PH+](C2CCCCC2)C2CCCCC2)CC1.O=C(C1[CH-]CCCC1)C1CCCC[N-]1.[Au] (stereo not drawn)", "COLO 205 colon", -45],
  ["O=C1CNC(c2ccccc2)c2cc(Cl)ccc2N1 (stereo not drawn)", "COLO 205 colon", 116],
  ["COc1cccc(/C=C/[N+](=O)[O-])c1", "COLO 205 colon", 19.5],
  ["COC1CC2c3ccccc3C1C(C)=[N+]2C (stereo not drawn)", "COLO 205 colon", 120],
  ["C[C@]12CCc3sc(NCCc4ccccc4)nc3C1=CC[C@@H]1[C@@H]2CC[C@]2(C)C(=O)CC[C@@H]12", "COLO 205 colon", 90.6],
  ["COC(=O)[C@@H](C)C[C@H](Cc1ccccc1)NC(=O)c1csc([C@@H](C[C@H](C(C)C)N(C)C(=O)[C@@H](NC(=O)[C@H]2CCCN2C)C2CC2)OC(C)=O)n1", "COLO 205 colon", -63.1],
  ["O=Cc1cn(Cc2ccc(Cl)cc2)c2ccccc12", "COLO 205 colon", 22],
  ["CC(C)=CCc1c(O)c(C(=O)CC(C)C)c(O)c2c(-c3ccccc3)cc(=O)oc12", "COLO 205 colon", 83.1],
  ["CC12CC=CCC1CCC1C2CCC2(C)C(c3ccc(=O)oc3)CCC12O (stereo not drawn)", "COLO 205 colon", -43.6],
  ["Brc1ccc2c(c1)c(-c1nc(-c3c[nH]c4ncccc34)cs1)cn2CCN1CCOCC1", "COLO 205 colon", 64.3],
  ["COc1ccc(/C(C)=C(\\c2ccc(OCCN3CCOCC3)cc2)c2ccc(OC(=O)Cc3ccccc3)cc2)cc1", "COLO 205 colon", 109],
  ["C/C(CC(C)(C)N1CC1)=N\\NC(=O)Nc1cccc2ccccc12", "COLO 205 colon", 52.3],
  ["CC(=O)O[C@H]1C(=O)[C@@]2(C)[C@H]([C@H](OC(=O)c3ccccc3)[C@]3(O)C[C@H](OC(=O)[C@H](OC(=O)OC[C@H]4COC(C)(C)O4)[C@@H](NC(=O)c4ccccc4)c4ccccc4)C(C)=C1C3(C)C)[C@]1(OC(C)=O)CO[C@@H]1C[C@@H]2O", "COLO 205 colon", -15.1],
  ["CC(=O)[O][Hg][c]1c(N)c(C)cc(C)c1F", "COLO 205 colon", -16.6],
  ["CCCCCCCC[n+]1ccc2ccccc2c1", "COLO 205 colon", 59],
  ["C[C@@H]1O[C@@H](O[C@H]2C[C@@H](O)[C@]3(CO)C4C(CC[C@]3(O)C2)[C@@]2(O)CC[C@H](C3=CC(=O)OC3)[C@@]2(C)C[C@H]4O)[C@H](O)[C@H](O)[C@H]1O (stereo partly drawn)", "COLO 205 colon", -84.2],
  ["CCCC[C@H](NC(=O)[C@H]1CCCCN1C)C(=O)N(C)[C@H](C[C@@H](OC(C)=O)c1nc(C(=O)N[C@@H](Cc2ccccc2)C[C@H](C)C(=O)OCC)cs1)C(C)C", "COLO 205 colon", -69.9],
  ["Nc1nc([Se])c2ncn(C3OC(CO)C(O)C3O)c2n1 (stereo not drawn)", "COLO 205 colon", 124],
  ["COC(=O)[C@]12CCC(C)(C)C[C@H]1[C@H]1C(=O)C[C@@H]3[C@@]4(C)C[C@@]5(CC(C)(C)[C@@H]4CC[C@@]3(C)[C@]1(C)CC2)OO[C@@](C)(C(F)(F)F)O5", "COLO 205 colon", 134],
  ["CC[C@]12C=CCN3CC[C@@]4(c5ccc(OC)cc5N(C)[C@H]4[C@@](O)(C(=O)OC)[C@@H]1OC(=O)CCCC[P+](c1ccccc1)(c1ccccc1)c1ccccc1)[C@@H]32", "COLO 205 colon", -93.7],
  ["COc1ccc(C2=N[C@@H](Cc3ccccc3)C(=O)Nc3ccsc32)cc1", "COLO 205 colon", 35.6],
  ["COC(=O)[C@@H](C)C[C@H](Cc1ccccc1)NC(=O)c1csc([C@@H](C[C@H](C(C)C)N(C)C(=O)[C@H](C)NC(=O)[C@H]2CCCN2C)OC(C)=O)n1", "COLO 205 colon", 22.8],
  ["Cn1cc(C2=C(c3cn(C4CCN(Cc5ccccn5)CC4)c4ccccc34)C(=O)NC2=O)c2ccccc21", "COLO 205 colon", 6.03],
  ["O=C1C=C2C(=CCOC2O)O1 (stereo not drawn)", "COLO 205 colon", -87.3],
  ["COC(=O)[C@@]1(C)CC[C@]2(C)CC[C@]3(C)C4=CC(=O)c5c(cc(O)c(O)c5C)[C@]4(C)CC[C@@]3(C)[C@@H]2C1", "COLO 205 colon", 71.5],
  ["CCCC(=O)O[C@@H]1C[C@H]2C[C@@H](O[C@@H]3O[C@@H](C)[C@@H](O)[C@@H](O)[C@H]3OC)C[C@@H](C[C@@H](C)/C=C/C=C\\C[C@@H]3O[C@@H](C[C@@H]3C)[C@@H](O)C[C@H]3C[C@@]1(O)C(=O)O3)O2", "COLO 205 colon", 39.4],
  ["COc1ccc2c(c1)c(-c1nc(-c3cn(C)c4ncccc34)cs1)cn2CCN1CCOCC1", "COLO 205 colon", 33.2]
]}
